What pIC50 was measured for each of the following?
Measured on: TRPA1 (Homo sapiens, UniProt O75762)
Sequence (O75762 whole entry): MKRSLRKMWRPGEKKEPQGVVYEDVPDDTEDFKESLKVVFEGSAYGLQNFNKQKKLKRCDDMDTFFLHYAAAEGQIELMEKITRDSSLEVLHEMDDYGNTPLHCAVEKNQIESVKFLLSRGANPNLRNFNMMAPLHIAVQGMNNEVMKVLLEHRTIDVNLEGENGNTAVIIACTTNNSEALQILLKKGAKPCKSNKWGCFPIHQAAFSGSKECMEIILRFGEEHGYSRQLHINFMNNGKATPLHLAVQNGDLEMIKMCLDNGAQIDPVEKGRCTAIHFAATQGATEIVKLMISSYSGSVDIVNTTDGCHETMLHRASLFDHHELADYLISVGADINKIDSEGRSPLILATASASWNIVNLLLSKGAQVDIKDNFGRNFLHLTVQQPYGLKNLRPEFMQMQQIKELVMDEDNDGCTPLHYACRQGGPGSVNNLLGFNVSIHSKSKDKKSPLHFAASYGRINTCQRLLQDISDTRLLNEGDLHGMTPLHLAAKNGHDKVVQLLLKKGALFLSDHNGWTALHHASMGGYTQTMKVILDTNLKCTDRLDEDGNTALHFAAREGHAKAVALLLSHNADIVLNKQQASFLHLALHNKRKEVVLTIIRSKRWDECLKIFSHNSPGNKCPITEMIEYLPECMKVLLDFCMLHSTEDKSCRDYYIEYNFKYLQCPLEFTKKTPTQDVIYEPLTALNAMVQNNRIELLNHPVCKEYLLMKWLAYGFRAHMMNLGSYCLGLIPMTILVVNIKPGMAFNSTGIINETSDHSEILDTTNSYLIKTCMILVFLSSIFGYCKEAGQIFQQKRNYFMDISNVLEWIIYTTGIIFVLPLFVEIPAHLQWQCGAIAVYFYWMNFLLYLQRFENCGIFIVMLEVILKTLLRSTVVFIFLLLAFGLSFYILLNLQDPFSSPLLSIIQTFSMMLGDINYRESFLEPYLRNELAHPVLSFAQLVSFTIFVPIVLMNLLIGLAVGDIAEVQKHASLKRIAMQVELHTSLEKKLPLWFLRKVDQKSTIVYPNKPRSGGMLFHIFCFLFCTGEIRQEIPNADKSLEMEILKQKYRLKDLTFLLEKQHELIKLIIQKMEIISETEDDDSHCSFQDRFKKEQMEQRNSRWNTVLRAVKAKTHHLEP
Test details: Determination of TRPA1 activity in vitro (TRPA1 antagonism in vitro), procedure of Wei et al., Anesthesiology 111 (2009) 147-154
Numbers only, as −log10 of the molar value.

Consider the worked cases shown below.
Structure smiles string: CCc1cc(CNC(=O)[C@@H]2CCCN2S(=O)(=O)c2ccc(F)cc2)ccc1C#N
pIC50: 5.01

Structure smiles string: O=C(NCc1cc(F)cc(OC(F)F)c1)[C@@H]1CCCN1S(=O)(=O)c1ccc(F)cc1
pIC50: 4.94

In the following, a different compound is considered.
Look up pIC50 for this compound: CC(C)COc1ccnc(CNC(=O)[C@@H]2CCCN2S(=O)(=O)c2ccc(F)cc2)c1 4.98

* * *

Measured on: TRPA1 (Homo sapiens)
Test details: Determination of TRPA1 activity in vitro (TRPA1 antagonism in vitro), procedure of Wei et al., Anesthesiology 111 (2009) 147-154
Metric: pIC50
Answers are plain numbers, as −log10 of the molar value.

Consider the worked cases shown below.
Molecule: CC(C)Nc1cc(CNC(=O)[C@@H]2C[C@@H](F)CN2S(=O)(=O)c2ccccc2)ccc1Cl [Example 21]
pIC50: 4.81
--
Molecule: O=C(NCc1cc(OCC(F)(F)F)ccn1)[C@@H]1CCCN1S(=O)(=O)c1ccc(F)c(F)c1 [Example 32]
pIC50: 4.90
--
Molecule: O=C(NCc1ccnc(OCCC(F)(F)F)c1)[C@@H]1C[C@@H](F)CN1S(=O)(=O)c1ccc(F)c(F)c1 [Example 14]
pIC50: 4.59
--
Molecule: CCCOc1cccc(CNC(=O)[C@@H]2CCCN2S(=O)(=O)c2ccccc2)c1 [Example 6]
pIC50: 5.29
--
Molecule: CC(C)CSc1cc(CNC(=O)[C@@H]2C[C@@H](F)CN2S(=O)(=O)c2ccc(F)cc2)ccn1 [Example 36]
pIC50: 4.76

Please give pIC50 for each item listed below.
1. CCCc1cc(CNC(=O)[C@@H]2C[C@@H](F)CN2S(=O)(=O)c2ccccc2)ccc1C#N [Example 34]
2. CCc1ccc(CNC(=O)[C@@H]2CCCN2S(=O)(=O)c2ccc(F)cc2)cc1 [Example 38]
3. CC(C)(C)COc1cc(CNC(=O)[C@@H]2C[C@@H](F)CN2S(=O)(=O)c2ccc(F)cc2)ccn1 [Example 4]
4. O=C(NCc1cc(OCC(F)(F)F)ccn1)[C@@H]1CCCN1S(=O)(=O)c1cc(F)cc(F)c1 [Example 33]

[4.90, 4.77, 4.95, 4.73]

Please give pIC50 for each item listed below.
1. CC(C)CCOc1cncc(CNC(=O)[C@@H]2CCCN2S(=O)(=O)c2ccc(F)cc2)c1 [Example 28]
2. O=C(NCc1ccc(Br)cc1F)[C@@H]1CCCN1S(=O)(=O)c1ccc(F)cc1 [Example 9]

1. 5.39
2. 5.28
